Kd listing for selected binders.
Target: Aβ1-42 fibers (human)
Test: SPR
All answers are understood in nM, so give the number only.

Guide cases for Kd, answers given:
MS-R 7.9H2 x 7.12L1 Fab (antibody, V domains shown) VH: QLVESGGGLVQPGGSLRLSCAASGFTFSSYAMSWVRQAPGKGLEWVSAINADGNRKYYADSVKGRFTISRDNSKNTLYLQMNSLRAEDTAVYYCARGKGNTHKPYGYVRYFDVWGQGTLVTVSS VL: DIVLTQSPATLSLSPGERATLSCRASQYVFRRYLAWYQQKPGQAPRLLISGSSNRATGVPARFSGSGSGTDFTLTISSLEPEDFAVYYCLQLYNIPNTFGQGTKVEIKR
1.1
MS-R 7.11H1 x 7.2L1 Fab (antibody, V domains shown) VH: QLVESGGGLVQPGGSLRLSCAASGFTFSSYAMSWVRQAPGKGLEWVSGINAAGFRTYYADSVKGRFTISRDNSKNTLYLQMNSLRAEDTAVYYCARGKGNTHKPYGYVRYFDVWGQGTLVTVSS VL: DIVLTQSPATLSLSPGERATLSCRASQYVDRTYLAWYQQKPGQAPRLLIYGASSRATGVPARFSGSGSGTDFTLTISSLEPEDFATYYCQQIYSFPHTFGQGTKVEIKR
1.39
MS-R 7.11H2 x 7.9L1(L1) Fab (antibody, V domains shown) VH: QLVESGGGLVQPGGSLRLSCAASGFTFSSYAMSWVRQAPGKGLEWVSAINANGYKKYYADSVKGRFTISRDNSKNTLYLQMNSLRAEDTAVYYCARGKGNTHKPYGYVRYFDVWGQGTLVTVSS VL: DIVLTQSPATLSLSPGERATLSCRASQRLSPRYLAWYQQKPGQAPRLLIYGASSRATGVPARFSGSGSGTDFTLTISSLEPEDFATYYCLQIYNMPITFGQGTKVEIKR
1
MS-R 7.11H2 x 7.2L1(L1) Fab (antibody, V domains shown) VH: QLVESGGGLVQPGGSLRLSCAASGFTFSSYAMSWVRQAPGKGLEWVSAINANGYKKYYADSVKGRFTISRDNSKNTLYLQMNSLRAEDTAVYYCARGKGNTHKPYGYVRYFDVWGQGTLVTVSS VL: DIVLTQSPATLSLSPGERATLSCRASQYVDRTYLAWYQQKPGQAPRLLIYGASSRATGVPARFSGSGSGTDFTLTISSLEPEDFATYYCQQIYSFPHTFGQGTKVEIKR
0.6

Please turn your attention to the following entry.
Any idea what Kd was measured for MS-R 7.9H2 x 7.2L1(L1) Fab (antibody, V domains shown) VH: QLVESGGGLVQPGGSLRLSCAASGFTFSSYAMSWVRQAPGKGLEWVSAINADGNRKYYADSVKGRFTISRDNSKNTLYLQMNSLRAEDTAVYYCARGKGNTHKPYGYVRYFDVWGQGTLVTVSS VL: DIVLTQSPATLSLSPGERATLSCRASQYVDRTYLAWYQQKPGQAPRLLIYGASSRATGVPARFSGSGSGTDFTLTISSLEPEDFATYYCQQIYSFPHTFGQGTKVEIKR ?
1.4
